protocol notes: Antioxidant activity, measuring Deoxyribose degradation (DD) as a measure of hydroxyl radical formation.
assay endpoint: DD (µmol/mmol)

Past entries and their recorded results:
O=C(O)CCCCc1ccc2c(c1O)C(=O)c1c(O)cccc1C2; 2.62
O=C(O)CCCCCc1ccc2c(c1O)C(=O)c1c(O)cccc1C2; 2.29
O=C1c2c(O)cccc2Cc2ccc(C(CCc3ccccc3)C(=O)O)c(O)c21 (stereo unspecified); 2.47

[I] O=C(O)CCc1ccc2c(c1O)C(=O)c1c(O)cccc1C2
[II] COC(=O)C(CCc1ccccc1)c1ccc2c(c1O)C(=O)c1c(O)cccc1C2 (stereo unspecified)
[III] COC(=O)C(c1ccc2c(c1O)C(=O)c1c(O)cccc1C2)C(C)C (stereo unspecified)
[IV] CN(O)C(=O)CCCc1ccc2c(c1O)C(=O)c1c(O)cccc1C2
Number of compounds to sort: 4. Sort criterion: DD, ascending. // respond by listing labels in the order requested
II, III, IV, I
(II: 0.28 µmol/mmol, III: 0.54 µmol/mmol, IV: 1.5 µmol/mmol, I: 2.67 µmol/mmol)

[a] O=C(O)CCCc1ccc2c(c1O)C(=O)c1c(O)cccc1C2
[b] COC(=O)CCCc1ccc2c(c1O)C(=O)c1c(O)cccc1C2
Just tell me: smaller DD value, a or b ? API: response body contains the label of the selected item.
b
(b: 0.33 µmol/mmol, a: 2.61 µmol/mmol)

====

study target: Arachidonate 5-lipoxygenase (Bos taurus)
Sequence (Q9BEG3 whole entry): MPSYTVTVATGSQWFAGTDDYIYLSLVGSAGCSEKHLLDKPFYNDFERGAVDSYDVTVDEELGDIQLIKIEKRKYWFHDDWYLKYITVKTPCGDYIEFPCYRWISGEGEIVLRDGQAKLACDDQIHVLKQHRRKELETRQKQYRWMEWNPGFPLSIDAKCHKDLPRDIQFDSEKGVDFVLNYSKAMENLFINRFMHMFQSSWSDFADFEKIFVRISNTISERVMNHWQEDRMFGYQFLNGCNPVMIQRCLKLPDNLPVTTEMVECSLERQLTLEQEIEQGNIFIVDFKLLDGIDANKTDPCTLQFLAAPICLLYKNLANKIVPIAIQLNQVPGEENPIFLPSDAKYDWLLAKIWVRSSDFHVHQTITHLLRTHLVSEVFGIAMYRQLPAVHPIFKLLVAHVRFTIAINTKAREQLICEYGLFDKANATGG
protocol notes: 5-LO inhibitory activity, measured by production of 5-hydroxyeicosatetraenoic acid (5-HETE) and leukotriene B4 (LTB4) in bovine polymorphonuclear leukocytes
pIC50: −log10 of the molar value.
assay endpoint: pIC50

Past entries and their recorded results:
O=C(CCc1ccc2c(c1O)C(=O)c1c(O)cccc1C2)NO; 5.40
O=C(O)Cc1ccc2c(c1O)C(=O)c1c(O)cccc1C2; 4.66

[1] O=C(O)CCCc1ccc2c(c1O)C(=O)c1c(O)cccc1C2
[2] O=C(CCCc1ccc2c(c1O)C(=O)c1c(O)cccc1C2)NO
Hi, I'm comparing 1 with 2 and wondering which one has the bigger number for pIC50. Any idea? API: response body contains the label of the selected item.
2

====

protocol notes: Antioxidant activity, measuring Deoxyribose degradation (DD) as a measure of hydroxyl radical formation.
assay endpoint: DD (µmol/mmol)

Past entries and their recorded results:
CC(C(=O)N(C)O)c1ccc2c(c1O)C(=O)c1c(O)cccc1C2 (configuration not stated); 1.57
CC(C(=O)NO)c1ccc2c(c1O)C(=O)c1c(O)cccc1C2 (configuration not stated); 1.3
O=C(O)Cc1ccc2c(c1O)C(=O)c1c(O)cccc1C2; 3.74
CN(O)C(=O)c1ccc(C(=O)c2ccc3c(c2O)C(=O)c2c(O)cccc2C3)cc1; 0.92

[A] O=C1c2c(O)cccc2Cc2ccc(C(Cc3ccccc3)C(=O)O)c(O)c21 (configuration not stated)
[B] CC(C)C(C(=O)NO)c1ccc2c(c1O)C(=O)c1c(O)cccc1C2 (configuration not stated)
Hi, I'm comparing A with B and wondering which one has the bigger number for DD. Any idea? API: response body contains the label of the selected item.
A
